# procedure details: modulators of CIT2-GFP expression in yeast, confirmation, S. cerevisiae, GFP fusion, cherry picks, mother/daughter gates (AID 2274)
# run parameters: S. cerevisiae CIT2-GFP strain, flow cytometry, 3 h; measured here: daughter cell gate; at 10 µM; stronger effect = higher value

{"compound": "CCCCCCc1cc2cc(-c3nnc(-c4ccccc4OC)o3)c(=O)oc2cc1O", "measurement units": "%", "GFP response, % of DMSO": 101}
{"compound": "O=C(O)c1ccc(N/N=C/C(Br)=C/c2ccccc2)cc1", "measurement units": "%", "GFP response, % of DMSO": 92.7}
{"compound": "CCCCc1[nH]nc2c1C1(C(=O)N(CC)c3ccccc31)C(C#N)=C(N)O2 (stereo not drawn)", "measurement units": "%", "GFP response, % of DMSO": 97.4}
{"compound": "CC(=O)N(C1=C(Cl)C(=O)c2ccccc2C1=O)C1CCCCC1", "measurement units": "%", "GFP response, % of DMSO": 93.2}
{"compound": "CNC(=O)c1c(O)c2cccc3c2n(c1=O)CC3", "measurement units": "%", "GFP response, % of DMSO": 90.9}
{"compound": "Oc1ccc(Cl)cc1-c1cc(-c2ccco2)[nH]n1", "measurement units": "%", "GFP response, % of DMSO": 99.7}
{"compound": "O=C(/C(=C/O)N=Nc1ccc(Cl)cc1)c1ccncc1", "measurement units": "%", "GFP response, % of DMSO": 88.7}
{"compound": "Clc1cccc(Cn2ncc3ccccc32)c1", "measurement units": "%", "GFP response, % of DMSO": 95.4}
{"compound": "O=[N+]([O-])c1cc(O)c2ncccc2c1", "measurement units": "%", "GFP response, % of DMSO": 112}
{"compound": "COc1ccc(NC(=S)N2CCC(c3ccccc3)C2)cc1 (stereo not drawn)", "measurement units": "%", "GFP response, % of DMSO": 93.8}
{"compound": "C/C(=N/NS(=O)(=O)c1ccccc1)c1ccc(NC(=O)C(F)(F)F)cc1", "measurement units": "%", "GFP response, % of DMSO": 96.4}
{"compound": "CCOC(=O)c1cc(-c2ccc(/C=C3/C(=O)NC(=O)C(C#N)=C3C)o2)ccc1Cl", "measurement units": "%", "GFP response, % of DMSO": 103}
{"compound": "COc1ccc(-c2nnc(NC(=O)c3ccc(S(=O)(=O)N4COCC4(C)C)cc3)o2)cc1", "measurement units": "%", "GFP response, % of DMSO": 99.3}
{"compound": "CCOc1ccc(/C=C2\\N=C(c3cccs3)OC2=O)cc1OC", "measurement units": "%", "GFP response, % of DMSO": 95.6}
{"compound": "N/C(Cc1ccc(Cl)c(Cl)c1)=N\\OC(=O)c1cccs1", "measurement units": "%", "GFP response, % of DMSO": 126}
{"compound": "COc1ccc(CCNC2=C(Cl)C(=O)N(CCc3ccc(OC)c(OC)c3)C2=O)cc1OC", "measurement units": "%", "GFP response, % of DMSO": 98.3}
{"compound": "COc1ccc(NC2=C(Cl)C(=O)N(CCc3ccccc3)C2=O)cc1", "measurement units": "%", "GFP response, % of DMSO": 102}
{"compound": "Cc1ccc(S(=O)(=O)c2ncccc2N)cc1", "measurement units": "%", "GFP response, % of DMSO": 101}
{"compound": "COC(=O)c1ccc(N2C(=O)CC(Sc3n[nH]c(C)n3)C2=O)cc1 (stereo not drawn)", "measurement units": "%", "GFP response, % of DMSO": 108}
{"compound": "CCN1CCN(C(=O)C2CCN(c3nnc(C)c4c(C)n(-c5ccc(C)cc5)nc34)CC2)CC1", "measurement units": "%", "GFP response, % of DMSO": 102}
{"compound": "CCOC(=O)c1cnn(-c2cc(C)nc3c(-c4ccccc4)c(C)nn23)c1N", "measurement units": "%", "GFP response, % of DMSO": 99.1}
{"compound": "Cc1ccc2[nH]c3c(=O)n(CC(=O)N4CCN(C)CC4)ncc3c2c1", "measurement units": "%", "GFP response, % of DMSO": 103}
{"compound": "COc1cccc(C(=O)Nc2ccc(NC(=O)c3cc4ccccc4o3)c(OC)c2)c1", "measurement units": "%", "GFP response, % of DMSO": 105}
